Examples of compounds with documented pIC50 follow.
measurement_notes: Antiproliferative activity against human MCF7 cells after 72 hrs by MTT assay
Assay type: functional, cell-based
test_parameters: MCF7, 72 h, read-out: IC50
Value format note: pIC50 is -log10 of concentration (mol/L); just state the number.

compound=CCCCCCNc1c(C#N)c2nc3ccccc3n2c2ccccc12 test_readout=pIC50 measurement=5.52
compound="CC1CN(c2c(C#N)c3nc4ccccc4n3c3ccccc23)CC(C)N1 (configuration not stated)" test_readout=pIC50 measurement=5.22
compound=CC(C)Nc1ccc2c(NC(C)C)c(C#N)c3nc4ccccc4n3c2c1 test_readout=pIC50 measurement=5.15
compound="CC1CN(c2ccc3cc(C#N)c4nc5ccccc5n4c3c2)CC(C)N1 (configuration not stated)" test_readout=pIC50 measurement=6.22
compound=CC(C)CCNc1ccc2cc(C#N)c3nc4ccccc4n3c2c1 test_readout=pIC50 measurement=5.70
compound=CCCCCCNc1ccc2cc(C#N)c3nc4ccccc4n3c2c1 test_readout=pIC50 measurement=5.30

// sample `N#Cc1c(N2CCCC2)c2ccc(N3CCCC3)cc2n2c1nc1ccccc12` , its pIC50 was 5.70

// sample `CCCCNc1ccc2c(NCCCC)c(C#N)c3nc4ccccc4n3c2c1` , its pIC50 was 5.30

// sample CC1CN(c2ccc3c(N4CC(C)NC(C)C4)c(C#N)c4nc5ccccc5n4c3c2)CC(C)N1 (configuration not stated) , its pIC50 was 6.00

// sample `CC(C)CNc1ccc2c(NCC(C)C)c(C#N)c3nc4ccccc4n3c2c1` , its pIC50 was 5.70

// sample `CN1CCN(c2ccc3cc(C#N)c4nc5ccccc5n4c3c2)CC1` , its pIC50 was 5.70

// sample `N#Cc1c(N2CCOCC2)c2ccc(N3CCOCC3)cc2n2c1nc1ccccc12` , its pIC50 was 5.05

* * *

measurement_notes: Antiproliferative activity against human H460 cells after 72 hrs by MTT assay
Format: functional, cell-based
test_parameters: NCI-H460, 72 h, read-out: IC50
Examples of molecules with documented IC50 follow.
Could you give me the number in nM? Just the number is fine.

molecule="CC1CN(c2ccc3c(N4CC(C)NC(C)C4)c(C#N)c4nc5ccccc5n4c3c2)CC(C)N1 (centres undefined)" test_readout=IC50 scale_unit=nM measurement=800

Switching to the query record.
// sample `COc1cccc2c1C(=O)c1c(O)c3c(c(O)c1C2=O)C[C@@](O)(C(=O)CO)C[C@@H]3O[C@H]1C[C@H](N)[C@H](O)[C@H](C)O1` , its IC50 was 30

* * *

measurement_notes: Antiproliferative activity against human H460 cells after 72 hrs by MTT assay
Format: functional, cell-based
test_parameters: NCI-H460, 72 h, read-out: IC50
IC50 strictly less than 3 µM = Met. Otherwise Not met.

Worked set:
molecule="COc1cc([C@@H]2c3cc4c(cc3[C@@H](O[C@@H]3O[C@@H]5CO[C@@H](C)O[C@H]5[C@H](O)[C@H]3O)[C@H]3COC(=O)[C@H]23)OCO4)cc(OC)c1O [ETOPOSIDE]" assigned_label=Met
molecule=CC(C)CCNc1ccc2c(NCCC(C)C)c(C#N)c3nc4ccccc4n3c2c1 assigned_label="Not met"
molecule=CC(C)Nc1ccc2cc(C#N)c3nc4ccccc4n3c2c1 assigned_label=Met
molecule=CCCN(CCC)c1ccc2c(N(CCC)CCC)c(C#N)c3nc4ccccc4n3c2c1 assigned_label="Not met"
molecule="CC1CN(c2c(C#N)c3nc4ccccc4n3c3ccccc23)CC(C)N1 (centres undefined)" assigned_label="Not met"
molecule=CNc1ccc2c(NC)c(C#N)c3nc4ccccc4n3c2c1 assigned_label="Not met"

Q: Is the reported IC50 for `CCCCCCNc1ccc2c(NCCCCCC)c(C#N)c3nc4ccccc4n3c2c1` strictly below 3 µM?
A: Not met

Q: Is the reported IC50 for `CN1CCN(c2ccc3cc(C#N)c4nc5ccccc5n4c3c2)CC1` strictly below 3 µM?
A: Met
